The reported numbers originate from the supplement of paper PMC10724198.

# Test system: Saccharomyces cerevisiae
# experiment: protein stability index of tFT-peptide fusion (C-terminal peptide) (PSI (0-1 scale)); higher = more stable (slower turnover)
# condition_details: genetic background: das1 deletion; temperature: 30 C
Measured protein stability index by item
I only need the number, thanks.

Example sequences with recorded protein stability index:
The sequence identified as GLLFDKKKKARK [NOP19 C-terminal 12 aa] registered its protein stability index at 0.687

The sequence identified as DPFDTNLSIKLS [YMR075C-A C-terminal 12 aa] registered its protein stability index at 0.696

Now for a further sequence.
The sequence identified as ARTALKRLIDDQ [MSA1 C-terminal 12 aa] registered its protein stability index at 0.692

###

# Test system: Saccharomyces cerevisiae
# experiment: protein stability index of tFT-peptide fusion in deletion strain of DOA10 (PSI (0-1 scale)); higher = more stable (slower turnover)
Measured protein stability index by item

Example sequences with recorded protein stability index:
The sequence identified as "AITLPPCPLLLR" registered its protein stability index at 0.673

The sequence identified as "RVTRLDAIYFRIT" registered its protein stability index at 0.243

The sequence identified as "RSLRVLLPLYLR" registered its protein stability index at 0.671

The sequence identified as "RSLRVLLPLYFRE" registered its protein stability index at 0.703

The sequence identified as "FLYMCSVGCWFR" registered its protein stability index at 0.563

Now for a further sequence.
The sequence identified as "RVTRLDRIYFRI" registered its protein stability index at 0.566

###

# Test system: Saccharomyces cerevisiae
# experiment: protein stability index of tFT-peptide fusion (C-terminal peptide) (PSI (0-1 scale)); higher = more stable (slower turnover)
# condition_details: genetic background: das1 deletion; temperature: 30 C
result_type: protein stability index

Example sequences with recorded protein stability index:
The sequence identified as SRVVLSQGDSDD [TOF1 C-terminal 12 aa] registered its protein stability index at 0.684

The sequence identified as VTGSVPAYCDDD [ART5 C-terminal 12 aa] registered its protein stability index at 0.682

The sequence identified as VTIFTWSSLLFV [TED1 C-terminal 12 aa] registered its protein stability index at 0.438

The sequence identified as WAIESVDENWRF [TOP1 C-terminal 12 aa] registered its protein stability index at 0.746

The sequence identified as EDDEDGSGVEYD [RTT106 C-terminal 12 aa] registered its protein stability index at 0.694

The sequence identified as ETARNLAEYNGE [SEC72 C-terminal 12 aa] registered its protein stability index at 0.701

Others:
The sequence identified as AAGVGSVHGINR [COY1 C-terminal 12 aa] registered its protein stability index at 0.7

The sequence identified as QYVLYKNEAGDK [AIM39 C-terminal 12 aa] registered its protein stability index at 0.689

The sequence identified as SRIIIKAARGII [YOR082C C-terminal 12 aa] registered its protein stability index at 0.704

The sequence identified as EEDEEDEENEEQ [UBX2 C-terminal 12 aa] registered its protein stability index at 0.716

The sequence identified as TQQVVDDVLSRL [LYS12 C-terminal 12 aa] registered its protein stability index at 0.738

The sequence identified as KALNEIFMITND [PXR1 C-terminal 12 aa] registered its protein stability index at 0.723

###

# Test system: Saccharomyces cerevisiae
# experiment: protein stability index of tFT-peptide fusion (C-terminal peptide) (PSI (0-1 scale)); higher = more stable (slower turnover)
# condition_details: genetic background: wild type; temperature: 37 C
Measured protein stability index by item
I only need the number, thanks.

The sequence identified as "FRLCQRPVFLLS" registered its protein stability index at 0.408

Others:
The sequence identified as "VFLCVRLGFIFL" registered its protein stability index at 0.471

The sequence identified as "CGGLFDVALGVG" registered its protein stability index at 0.516

The sequence identified as "GLLAFVCISHTS" registered its protein stability index at 0.54

The sequence identified as "VVFVVGAPPVLC" registered its protein stability index at 0.507

The sequence identified as "CLLDVVMVVERG" registered its protein stability index at 0.392

The sequence identified as "ALLWEFVPCSVR" registered its protein stability index at 0.535

The sequence identified as "SCFDRQIFVPVC" registered its protein stability index at 0.417

###

# System: Saccharomyces cerevisiae
# experiment: protein stability index of tFT-peptide fusion (C-terminal peptide) (PSI (0-1 scale)); higher = more stable (slower turnover)
# condition_details: genetic background: cdc53-1; temperature: 37 C
result_type: protein stability index

Param item: "RTWFTYMSIPVW" ; param system: Saccharomyces cerevisiae; output protein stability index: 0.204

Param item: "MRVYLVLWADSC" ; param system: Saccharomyces cerevisiae; output protein stability index: 0.345

Param item: "PTYSCSIKIQAH" ; param system: Saccharomyces cerevisiae; output protein stability index: 0.537

Param item: "GFLAVTVACVWR" ; param system: Saccharomyces cerevisiae; output protein stability index: 0.136

Param item: "IRACGCSFLWVC" ; param system: Saccharomyces cerevisiae; output protein stability index: 0.63

Param item: "VLLCASPMLAVV" ; param system: Saccharomyces cerevisiae; output protein stability index: 0.356

Param item: "FWILLRVLIFVL" ; param system: Saccharomyces cerevisiae; output protein stability index: 0.172

Param item: "LCVVFCIRTYRV" ; param system: Saccharomyces cerevisiae; output protein stability index: 0.437

###

# System: Saccharomyces cerevisiae
# experiment: protein stability index of tFT-peptide fusion in wild type (PSI (0-1 scale)); higher = more stable (slower turnover)
# condition_details: genetic background: wild type
Measured protein stability index by item
I only need the number, thanks.

Example sequences with recorded protein stability index:
The sequence identified as "FFMRWTFRYWVN" registered its protein stability index at 0.0417

The sequence identified as "RVTRLDAIPFRI" registered its protein stability index at 0.69

Others:
The sequence identified as "GLCMCSVGCWFR" registered its protein stability index at 0.256

The sequence identified as "RLIQPYPVQFLN" registered its protein stability index at 0.0613

The sequence identified as "RLIQPLPVQFLF" registered its protein stability index at 0.247

The sequence identified as "GLYMCSVGKWFR" registered its protein stability index at 0.637

The sequence identified as "VRGAVGGWKLVG" registered its protein stability index at 0.203

The sequence identified as "AITLPACPLLLR" registered its protein stability index at 0.291

The sequence identified as "FTMRWTFRYWVN" registered its protein stability index at 0.0324

The sequence identified as "AITLPMCHLLLR" registered its protein stability index at 0.158

The sequence identified as "CLVHLPILLFFR" registered its protein stability index at 0.0596

The sequence identified as "GLYMCSVGCWFRK" registered its protein stability index at 0.435

The sequence identified as "PSLAASFWVVVG" registered its protein stability index at 0.249

###

# System: Saccharomyces cerevisiae
# experiment: protein stability index of tFT-peptide fusion (C-terminal peptide) (PSI (0-1 scale)); higher = more stable (slower turnover)
# condition_details: genetic background: cdc53-1; temperature: 37 C
result_type: protein stability index
I only need the number, thanks.

The sequence identified as "VRWLVFFLFLFG" registered its protein stability index at 0.481

The sequence identified as "PLFFGVQAFGGV" registered its protein stability index at 0.791

The sequence identified as "ALRGLWFPFSCL" registered its protein stability index at 0.765

The sequence identified as "GWWCGIGVAVSV" registered its protein stability index at 0.461

Others:
The sequence identified as "GWSRRFFCLFIV" registered its protein stability index at 0.303

The sequence identified as "LSLPTPLPSPPA" registered its protein stability index at 0.695

The sequence identified as "KYKANLGNLKVH" registered its protein stability index at 0.716

The sequence identified as "IIIGTLLYVNVR" registered its protein stability index at 0.323

The sequence identified as "FILFSEMFASSV" registered its protein stability index at 0.175

The sequence identified as "WFFRCLFLLSLF" registered its protein stability index at 0.544

The sequence identified as "PPTLLPPLHPAP" registered its protein stability index at 0.725

The sequence identified as "PPSPPLLFHFPP" registered its protein stability index at 0.756

The sequence identified as "RKWLFFRSWRYV" registered its protein stability index at 0.69

The sequence identified as "WALWGFVFWDWW" registered its protein stability index at 0.476

###

# System: Saccharomyces cerevisiae
# experiment: protein stability index of tFT-peptide fusion (C-terminal peptide) (PSI (0-1 scale)); higher = more stable (slower turnover)
# condition_details: genetic background: wild type; temperature: 30 C
Hi, to clarify the labels: 1 covers protein stability index from 0.2 upward, -1 covers anything below 0.2.

Below, 5 sequences whose answers are already recorded.
Assess whether reported protein stability index for "VSFLLYNFLSVF" sits at 0.2 or higher.
-1

Assess whether reported protein stability index for "ARRGHNCAAVFL" sits at 0.2 or higher.
1

Assess whether reported protein stability index for "SYFASLLDLFTA" sits at 0.2 or higher.
1

Assess whether reported protein stability index for "FLCIFFFFLISF" sits at 0.2 or higher.
1

Assess whether reported protein stability index for "CASVCCFFAWIV" sits at 0.2 or higher.
1

Others:
Assess whether reported protein stability index for "PPRDPGGLFTPF" sits at 0.2 or higher.
1

Assess whether reported protein stability index for "VACTCILVALVV" sits at 0.2 or higher.
-1

Assess whether reported protein stability index for "LPILFPAALRLY" sits at 0.2 or higher.
1

Assess whether reported protein stability index for "LHIHGAGIVCAG" sits at 0.2 or higher.
1
